Origin of the recorded values: patent US20260167731A1

- test_system: pm1, modified CCR8 related peptide (human, sulfated tyrosine at Y15)
- Sequence (peptide, as listed by the source): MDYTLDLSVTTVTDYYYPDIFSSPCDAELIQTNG
- experimental_details: ELISA on coated CCR8 peptide (500 ng/mL), OD [cont.]

binder	binding result
anti-CCR8 mAb 2-3 (antibody, V domains shown) VH: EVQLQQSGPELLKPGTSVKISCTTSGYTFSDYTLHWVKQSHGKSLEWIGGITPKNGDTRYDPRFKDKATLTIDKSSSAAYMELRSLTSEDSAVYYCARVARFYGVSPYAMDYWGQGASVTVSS VL: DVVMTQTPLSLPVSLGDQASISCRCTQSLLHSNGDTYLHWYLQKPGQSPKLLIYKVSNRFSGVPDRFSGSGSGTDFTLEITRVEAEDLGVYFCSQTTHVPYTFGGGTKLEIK	binds
anti-CCR8 mAb 2-7 (antibody, V domains shown) VH: QVQLKESGPGLVAPSQSLSITCTVSGFSLTDYRVSWIRQPPGKGLEWLGVIWGGRSTYYNSALKSRLSISKDNSKSQVFLKMNSLQTDDTAMYYCAKQGDGYYALDYWGQGTSVTVSS VL: DVVMTQTPLSLPVSLGDQASISCRSSQSLVHSYGNTYLHWYLQKPGQSPKLLIYKVSNRFSGVPDRFHGSGSGTDFTLKISRVEAEDLGVYFCSQSTHVPPTFGGGTKLEIK	binds
anti-CCR8 mAb 2-1 (antibody, V domains shown) VH: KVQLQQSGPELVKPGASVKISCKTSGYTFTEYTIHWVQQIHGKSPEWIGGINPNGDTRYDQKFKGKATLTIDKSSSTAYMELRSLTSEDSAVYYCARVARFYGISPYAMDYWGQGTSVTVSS VL: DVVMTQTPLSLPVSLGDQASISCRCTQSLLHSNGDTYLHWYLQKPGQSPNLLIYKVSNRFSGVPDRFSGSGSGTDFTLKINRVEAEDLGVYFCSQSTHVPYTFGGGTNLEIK	binds
